Hey, just so you know, these numbers are from the SangsterLogP compilation.

Give logP for every item shown.
One number for each entry.

Study these solved cases before continuing.
| compound | logP |
| --- | --- |
| COc1ccc(NC(=O)C2C3C=CC(C3)C2c2nc(SC)n[nH]2)cc1 (stereo unspecified) | 2.86 |
| CSc1n[nH]c(C2CCCCC2C(=O)Nc2ccc(Br)cc2)n1 (stereo unspecified) | 4.02 |
| CCC(C)NC(=O)C1CCCCC1c1nc(SC)n[nH]1 (stereo unspecified) | 2.97 |
| CCCNC(=O)C1C2C=CC(C2)C1c1nc(SC)n[nH]1 (stereo unspecified) | 2.13 |

# return logP for each item in the list
1. CSc1n[nH]c(C2C3C=CC(C3)C2C(=O)NC2CCCCC2)n1 (stereo unspecified)
2. CSc1n[nH]c(C2C3C=CC(C3)C2C(=O)NCc2ccccc2)n1 (stereo unspecified)
3. CSc1n[nH]c(C2C3C=CC(C3)C2C(=O)Nc2ccc(Br)cc2)n1 (stereo unspecified)

a:
1: 3.03; 2: 2.8; 3: 3.67

# return logP for each item in the list
1. CSc1n[nH]c(C2CCCCC2C(=O)Nc2ccccc2)n1 (stereo unspecified)
2. CCCCNC(=O)C1CCCCC1c1nc(SC)n[nH]1 (stereo unspecified)
3. CCCNC(=O)C1CCCCC1c1nc(SC)n[nH]1 (stereo unspecified)
4. CSc1n[nH]c(C2C3C=CC(C3)C2C(=O)Nc2cccc(C)c2)n1 (stereo unspecified)

a:
1. 3.3
2. 2.97
3. 2.55
4. 3.29
